// data source = PubChem BioAssay (NCI)

- Tested on: MDA-MB-231 breast
- Test details: NCI tumour cell line growth inhibition, 48 h
Property name: TGI (µM)
Use µM as the unit, but write only the number.

# Smiles string, Assayed system, Quantitative readout
records = [
    ("ClCc1ccc(-c2ccc(Cn3cnc4c(Cl)nc(Cl)nc43)cc2)cc1", "MDA-MB-231 breast", 7.14),
]

Q) Check the records and state TGI for CCOC(=O)/C(=C/c1ccc([N+](=O)[O-])cc1)C(=O)c1ccccc1
A) 5.24

###

In this section, each of the compounds is paired with its reported TGI.
- Tested on: EKVX NSCLC
- Test details: NCI tumour cell line growth inhibition, 48 h

Known results for compounds:
# Compound, Assayed system, Property name, Result
rows = [
    ("C=C1C(=O)O[C@H]2[C@H]1CC/C(Cn1cc(Cn3ccc4ccccc43)nn1)=C\\CC[C@@]1(C)O[C@@H]21", "EKVX NSCLC", "TGI", "4.22 µM"),
    ("NS(=O)(=O)c1ccc(NNc2c3ccccc3nc3ccccc23)cc1", "EKVX NSCLC", "TGI", "21.1 µM"),
    ("O=C(Cn1cc(-c2ccccc2)nn1)NC1CCCC1", "EKVX NSCLC", "TGI", "> 100 µM"),
    ("CCOC(=O)c1ccc(N(CCOS(C)(=O)=O)CCOS(C)(=O)=O)cc1C", "EKVX NSCLC", "TGI", "> 100 µM"),
    ("CCOC(=O)C1CCn2c(nc3c2c(=O)n(C)c(=O)n3C)S1 (stereo unspecified)", "EKVX NSCLC", "TGI", "> 100 µM"),
    ("O=C1C(=O)c2ccccc2-c2ccccc21", "EKVX NSCLC", "TGI", "3.25 µM"),
    ("COc1ccc(CNC2=C(NC(C)=O)C(=O)c3ccccc3C2=O)cc1", "EKVX NSCLC", "TGI", "47.3 µM"),
    ("COC(=O)C(C)NP(=O)(OCc1ccc(Cn2cnc3c(=O)[nH]c(N)nc32)cc1)Oc1ccccc1 (stereo unspecified)", "EKVX NSCLC", "TGI", "> 100 µM"),
    ("NC1=C(Cl)C(=O)c2ccc(S(N)(=O)=O)cc2C1=O", "EKVX NSCLC", "TGI", "2.91 µM"),
    ("COc1cc2nc(Sc3c([N+](=O)[O-])ncn3C)[nH]c2cc1OC", "EKVX NSCLC", "TGI", "80.7 µM"),
]

Q) Item N#CC(c1ccccc1)N1CCCN(C(C#N)c2ccccc2)C1c1ccccc1O (stereo unspecified) : provide TGI
A) > 100 µM

Q) Indicate the recorded TGI value for this compound: CC(NC(=O)C(N)Cc1ccc(O)cn1)C(=O)O (stereo unspecified)
A) > 100 µM

Q) Recall and state the measured TGI for C[C@]12CCC(=O)C=C1CC[C@@H]1[C@@H]2[C@@H](O)C[C@@]2(C)[C@H]1CC[C@]2(O)C(=O)CO .
A) > 100 µM

Q) Give the value of TGI reported for the following: Cc1ccccc1NC(=O)C(=O)C(c1cnc2ccc([N+](=O)[O-])cc2n1)[N+](=O)[O-] (stereo unspecified)
A) > 100 µM

Q) Dear colleague, please send me the reported TGI for CN(C)CCCN(c1nc(C(Cl)(Cl)Cl)ns1)c1nc(C(Cl)(Cl)Cl)ns1 when you can.
A) 13 µM
